Taken from the supplement of paper PMC7877785.

In this section we review reported self-splicing fitness (ln) values for a set of sequences.
- experimental.protocol: self-splicing fitness, log relative to wild type (ln ratio); higher = more splicing; Tetrahymena group I intron in knt gene, E. coli kanamycin selection, DiMSum; sequences stand for … in CUCUCU…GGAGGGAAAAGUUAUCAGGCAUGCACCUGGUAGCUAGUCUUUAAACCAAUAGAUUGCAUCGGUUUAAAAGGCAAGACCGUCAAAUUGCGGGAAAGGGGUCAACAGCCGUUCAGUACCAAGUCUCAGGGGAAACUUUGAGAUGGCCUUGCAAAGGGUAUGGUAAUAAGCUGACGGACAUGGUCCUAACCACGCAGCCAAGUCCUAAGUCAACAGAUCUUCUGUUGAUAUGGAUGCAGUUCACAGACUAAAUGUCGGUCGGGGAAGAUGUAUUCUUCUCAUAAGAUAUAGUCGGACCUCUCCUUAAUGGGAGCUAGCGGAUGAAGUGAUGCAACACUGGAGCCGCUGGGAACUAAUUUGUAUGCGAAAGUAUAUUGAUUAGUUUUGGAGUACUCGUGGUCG;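 note: selection with 25 µg/mL kanamycin versus none on LB agar overnight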
- particulars: 30 °C

Below, 2 sequences whose answers are already recorded.
GGUAAGCAAUAUUACGAGAC ... -1.71
UUUGAGCAAUAUUACGAUGA ... -0.96

Read the entry UAAAAGCAAUAUUACGUCCG and write its reported self-splicing fitness (ln).
-0.59

Let me know recorded self-splicing fitness (ln) for GUCAAGCAAUAUUACGCCGA , thanks.
-3.33

Output self-splicing fitness (ln) of UCGCAGCAAUAUUACGACUG
-1.93

Please look at this sequence and report its self-splicing fitness (ln): ACCGAGCAAUAUUACGCUAA
-3.28

Entry UAACAGCAAUAUUACGAAUC needs its self-splicing fitness (ln) filled in; supply it.
-2.67

Output self-splicing fitness (ln) of AACGAGCAAUAUUACGAUUU
-0.71

Name the recorded self-splicing fitness (ln) of the sequence listed here: AAUGAGCAAUAUUACGCGAU
-3.63

Give reported self-splicing fitness (ln) value for AAUAAGCAAUAUUACGGGGU
-3.91

Specify measured self-splicing fitness (ln) for GUGUAGCAAUAUUACGGUGU .
-2.26

Output self-splicing fitness (ln) of CACCAGCAAUAUUACGUAGU
-3.23

Identify measured self-splicing fitness (ln) corresponding to UCACAGCAAUAUUACGAUGU
-4.15

###

- experimental.protocol: self-splicing fitness, log relative to wild type (ln ratio); higher = more splicing; Tetrahymena group I intron in knt gene, E. coli kanamycin selection, DiMSum; sequences stand for … in CUCUCU…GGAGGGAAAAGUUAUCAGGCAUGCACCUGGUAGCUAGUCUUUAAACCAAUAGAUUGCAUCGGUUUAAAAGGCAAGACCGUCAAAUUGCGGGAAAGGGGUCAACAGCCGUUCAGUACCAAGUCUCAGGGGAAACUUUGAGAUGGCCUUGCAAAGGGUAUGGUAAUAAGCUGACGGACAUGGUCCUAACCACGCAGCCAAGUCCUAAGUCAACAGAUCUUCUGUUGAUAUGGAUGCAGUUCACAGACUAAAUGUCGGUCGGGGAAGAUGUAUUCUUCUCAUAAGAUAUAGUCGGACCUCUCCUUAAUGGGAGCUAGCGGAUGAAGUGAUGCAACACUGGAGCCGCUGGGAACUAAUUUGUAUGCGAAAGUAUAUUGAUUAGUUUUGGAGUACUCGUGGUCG
- particulars: 37 °C
self-splicing fitness (ln) by entry:
Reply briefly: the number, and no unit.

Below: 5 sequences and their reported self-splicing fitness (ln).
GCAGAGCAAUAUUACGUUUC ... -2.27
ACGCAGCAAUAUUACGCGAA ... -1.2
CCUGAGCAAUAUUACGUCUU ... -2.42
UGACAGCAAUAUUACGUUAG ... -0.987
CAUGAGCAAUAUUACGUCAA ... -2.64

Look up and state reported self-splicing fitness (ln) for UUCCAGCAAUAUUACGACAC
-2.18

Identify measured self-splicing fitness (ln) corresponding to AUGCAGCAAUAUUACGUUGG
-2.33

Name the recorded self-splicing fitness (ln) of the sequence listed here: AGCGAGCAAUAUUACGGUUU
-0.574

Give self-splicing fitness (ln) for GUCGAGCAAUAUUACGUUGG
-2.95

// fetch self-splicing fitness (ln) given entry CCGGAGCAAUAUUACGAGUC
-1.85

Identify measured self-splicing fitness (ln) corresponding to CAGGAGCAAUAUUACGCUUU
-1.81

Provide one value: measured self-splicing fitness (ln) of UGGGAGCAAUAUUACGAUGG
-2.77
